target: T1, recombinant human GM-CSF (rhGM-CSF), produced in E. coli (human, UniProt P04141 18-144); test: SPR off-rate ranking, purified periplasmic preparation over immobilized rhGM-CSF; clone listed among the sequenced hits in the 2nd table
T1 construct: The ELISA of 2.5.2 and the TF-1 proliferation assays say only rhGM-CSF without naming the preparation; they are assigned to this molecule; also called human GM-CSF antigen; recombinant human granulocyte macrophage colony stimulating factor
T1 sequence (P04141 18-144 limits assumed): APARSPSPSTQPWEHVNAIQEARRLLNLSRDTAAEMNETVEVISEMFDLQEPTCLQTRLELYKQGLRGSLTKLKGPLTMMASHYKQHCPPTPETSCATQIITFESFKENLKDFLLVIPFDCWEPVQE
Quantity measured: binding result

>  <Binder>
half-human SCA B32oN-49 (scFv, Expressed from pComb3H5BFlag/His) scFv: ELQLVEQSGAALVKPGDSVKMSCKASGYPFTDYIVHWVKQSHGKSLDWIGYINPYSGDTKFNEKFKSKATLTVDKSSSTAYMEFSRLTSEDSAIYYCARSGLIAVYFDYWGQGTTVTVSSGGGGSGGGGSGGGGSELVLTQSPDFQSVTPKEKVTITCRASQSIGSSLHWYQQKPDQSPKLLIKFASQSLSGVPSRFSGSGSGTDFTLTISSLQPEDFATYYCQQSYTTPPTFGGGTKVEIKTGDYKDDDDKHHHHHH

>  <Reading>
binds

$$$$
>  <Binder>
half-human SCA C32oN-34 (scFv, Expressed from pComb3H5BFlag/His) scFv: ELQLVEQSGAALVKPGDSVKMSCKASGYPFTDYIVHWVKQSHGKSLDWIGYINPYSGDTKFNEKFKSKATLTVDKSSSTAYMEFSRLTSEDSAIYYCARSGLIAVYFDYWGQGTTVTVSSGGGGSGGGGSGGGGSELVLTQSPDFQSVTPKERVTITCRASQTIGNNLHWYQQKPGQSPKLLIKFASQSFSGVPSRFSGSGSGTDFTLTINSLEAEDAATYYCQQSYSTPWTFGQGTKVEIKTGDYKDDDDKHHHHHH

>  <Reading>
binds

$$$$
>  <Binder>
half-human SCA B33oN-8 (scFv, Expressed from pComb3H5BFlag/His) scFv: ELQLVEQSGAALVKPGDSVKMSCKASGYPFTDYIVHWVKQSHGKSLDWIGYINPYSGDTKFNEKFKSKATLTVDKSSSTAYMEFSRLTSEDSAIYYCARSGLIAVYFDYWGQGTTVTVSSGGGGSGGGGSGGGGSELVLTQSPGFQSVTPKEKVTITCRASQSIGSSLNWYQQKPDQPPKLLIKFASQSISGVSSRFSGTGSGTDFTLTISSLQPEDVATYYCQQSYSTPPTFGQGTKLEIKTGDYKDDDDKHHHHHH

>  <Reading>
binds

$$$$

Reference source: patent US8247194
